Ref: patent US12329757B2

Assay: Food effect on administration of sepiapterin: plasma concentrations of BH4 and sepiapterin in fasted and fed subjects
Format: in vivo
Conditions: human, plasma; fed; sepiapterin 10 mg/kg oral; 2 h; read-out: Sepiapterin Concentration in Plasma, Minimum
measured_metric: concentration at 2 h (nM)
Give just the number in nM; leave the unit off.

Ask: If you can, please state the reported concentration at 2 h value of C[C@H](O)C(=O)C1=Nc2c(nc(N)[nH]c2=O)NC1 [sepiapterin, Sepiapterin] .
Result: 0

----------
Experiment: Food effect on administration of sepiapterin: plasma concentrations of BH4 and sepiapterin in fasted and fed subjects
Assay type: in vivo
Settings: human, plasma; fasted; sepiapterin 10 mg/kg oral; 4 h; read-out: Sepiapterin Concentration in Plasma, Minimum
measured_metric: concentration at 4 h (nM)
Give just the number in nM; leave the unit off.

Ask: If you can, please state the reported concentration at 4 h value of C[C@H](O)C(=O)C1=Nc2c(nc(N)[nH]c2=O)NC1 [sepiapterin, Sepiapterin] .
Result: 0
